Taken from ChEMBL document CHEMBL1614632.

- run.description: clinical
- condition.set: human, in vivo, iv
measured.attribute: fraction unbound

compound	measured
Cc1cccc(C)c1OCC(C)N (stereo not given) [MEXILETINE]	0.36
CO/N=C(\C(=O)N[C@@H]1C(=O)N2C(C(=O)O)=CCS[C@H]12)c1csc(N)n1 [CEFTIZOXIME]	0.72
COc1ccc2c3c1O[C@H]1[C@@H](O)C=C[C@H]4[C@@H](C2)N(C)CC[C@@]341 [CODEINE]	0.7
CC(NCCc1ccc(O)cc1)C(O)c1ccc(O)cc1 (stereo not given) [RITODRINE]	0.64
COc1ccc2c(c1)c(CC(=O)O)c(C)n2C(=O)c1ccc(Cl)cc1 [INDOMETHACIN]	0.01

* * *

- run.description: clinical
- condition.set: human, in vivo, iv
measured.attribute: log10(MRT) (log10 of the value in h)

compound	measured
N=C(N)c1ccc(OCCCCCOc2ccc(C(=N)N)cc2)cc1 [PENTAMIDINE]	1.08
C[C@H]([C@](O)(Cn1cncn1)c1ccc(F)cc1F)S(C)(=O)=O [GENACONAZOLE]	1.73
COC(=O)[C@H]1[C@@H](OC(=O)c2ccccc2)C[C@@H]2CC[C@H]1N2C [COCAINE]	0.00
Cc1ccc(C(=O)c2cc(O)c(O)c([N+](=O)[O-])c2)cc1 [TOLCAPONE]	0.04
C[C@@H]1CN(c2c(F)c(N)c3c(=O)c(C(=O)O)cn(C4CC4)c3c2F)C[C@H](C)N1 [SPARFLOXACIN]	1.38
Nc1c2c(nc3ccccc13)CCCC2 [TACRINE]	0.52
CCOC(=O)c1ncn2c1CN(C)C(=O)c1cc(F)ccc1-2 [FLUMAZENIL]	0.00
Cc1ccsc1C(=CCCN1CCC[C@@H](C(=O)O)C1)c1sccc1C [TIAGABINE]	1.08
CC[C@@H](CO)NCCN[C@@H](CC)CO [ETHAMBUTOL]	0.43
CC(=O)NC[C@H]1CN(c2ccc(N3CCOCC3)c(F)c2)C(=O)O1 [LINEZOLID]	0.73
NC[C@H]1O[C@H](O[C@H]2[C@H](O[C@@H]3O[C@H](CO)[C@@H](O)[C@H]3O)[C@@H](O)[C@H](N)C[C@@H]2N)[C@H](N)[C@@H](O)[C@@H]1O [RIBOSTAMYCIN]	0.45
CCN(CC)CCS(=O)(=O)[C@@H]1CCN2C(=O)c3coc(n3)CC(=O)C[C@H](O)/C=C(C)/C=C/CNC(=O)/C=C/[C@@H](C)[C@@H](C(C)C)OC(=O)[C@@H]12 [DALFOPRISTIN]	-0.39
COc1cc([C@@H]2c3cc4c(cc3C(OC3OC5COC(C)OC5C(O)C3N)C3COC(=O)[C@@H]32)OCO4)cc(OC)c1O (stereo partly drawn) [NK-611]	1.23
Nc1nc2c(ncn2CCC(CO)CO)c(=O)[nH]1 [PENCICLOVIR]	0.38
CCS(=O)(=O)CCn1c([N+](=O)[O-])cnc1C [TINIDAZOLE]	1.20
CCOc1ccccc1OCCN[C@H](C)Cc1ccc(OC)c(S(N)(=O)=O)c1 [TAMSULOSIN]	0.75
CC(C)(C)NC(=O)[C@@H]1C[C@@H]2CCCC[C@@H]2CN1C[C@@H](O)[C@H](Cc1ccccc1)NC(=O)[C@H](CC(N)=O)NC(=O)c1ccc2ccccc2n1	0.66
Clc1ccc2nsnc2c1NC1=NCCN1 [TIZANIDINE]	0.56
CCN(C)C(=O)Oc1cccc([C@H](C)N(C)C)c1 [RIVASTIGMINE]	0.28
CCCCCNC(=N)N/N=C/c1c[nH]c2ccc(OC)cc12 [TEGASEROD]	0.69
CC1(C)S[C@@H]2[C@H](NC(=O)[C@H](N)c3ccc(O)cc3)C(=O)N2[C@H]1C(=O)O [AMOXICILLIN]	0.11
COc1cc2c(cc1OC)[C@@H](Cc1cc(OC)c(OC)c(OC)c1)[N+](C)(CCCOC(=O)CC/C=C/CCC(=O)OCCC[N+]1(C)CCc3cc(OC)c(OC)cc3[C@H]1Cc1cc(OC)c(OC)c(OC)c1)CC2 (stereo partly drawn)	-0.06
CCCCc1ncc(/C=C(\Cc2cccs2)C(=O)O)n1Cc1ccc(C(=O)O)cc1 [EPROSARTAN]	0.18
S=P(N1CC1)(N1CC1)N1CC1 [THIOTEPA]	0.60
Nc1ccc(O)c(C(=O)O)c1 [MESALAMINE]	-0.23
CN(C)CCCN1c2ccccc2CCc2cc(O)ccc21 [2-HYDROXYIMIPRAMINE]	1.08
O=C1CCc2ccc(OCCCCN3CCN(c4cccc(Cl)c4Cl)CC3)cc2N1 [ARIPIPRAZOLE]	1.99
CCCc1nn(C)c2c(=O)[nH]c(-c3cc(S(=O)(=O)N4CCN(C)CC4)ccc3OCC)nc12	0.41
C=C1CC[C@@]2(O)[C@H]3Cc4ccc(O)c5c4[C@@]2(CCN3CC2CC2)[C@H]1O5	0.96
C[C@@H](O)[C@H]1C(=O)N2C(C(=O)O)=C(SCCN=CN)C[C@H]12 [IMIPENEM ANHYDROUS]	0.11
C#C[C@]1(O)CC[C@H]2[C@@H]3CCc4cc(O)ccc4[C@H]3CC[C@@]21C [ETHINYL ESTRADIOL]	1.04
COc1ccc(C[C@@H]2c3cc(OC)c(OC)cc3CC[N@+]2(C)CCC(=O)OCCCCCOC(=O)CC[N@@+]2(C)CCc3cc(OC)c(OC)cc3[C@H]2Cc2ccc(OC)c(OC)c2)cc1OC	-0.37
CC[C@H](OC(C)=O)C(C[C@H](C)N(C)C)(c1ccccc1)c1ccccc1 [LEVOMETHADYL ACETATE]	1.41
